# Test system: A-431
# run.description: Cell cycle arrest in A431 cells by accumulation at G2/M phase cell at 0.1uM
# Assay type: functional
# condition.context: Homo sapiens
Entries and their inhibition at 0.1 µM
Report only the number, with the unit % understood.

Exercise: Determine its reported inhibition at 0.1 µM: COc1cc(OC)cc(Oc2ncncc2-c2n[nH]c(Nc3ccc4c(c3)OCCO4)n2)c1
Solution: 83

* * *

Listed compounds paired with reported Ki
# target.or.test.system: Tubulin
# run.description: Displacement of [3H]colchicine from tubulin
Kindly answer with a numeric value in nM, unit omitted.

- chemical.structure: "COc1cc2c(c(OC)c1OC)-c1ccc(O)cc1[C@@H](N)CC2"
  measurement.name: "Ki"
  value.unit: "nM"
  value.reported: 1850
- chemical.structure: "COc1cccc(Nc2nnc(-c3cccnc3Nc3cc(OC)cc(OC)c3)[nH]2)c1"
  measurement.name: "Ki"
  value.unit: "nM"
  value.reported: 100
- chemical.structure: "COc1cc(OC)cc(Oc2ncccc2-c2n[nH]c(Nc3ccc4c(c3)OCCO4)n2)c1"
  measurement.name: "Ki"
  value.unit: "nM"
  value.reported: 20
- chemical.structure: "COc1cc(OC)cc(Oc2ncccc2-c2n[nH]c(Nc3ccc4c(c3)OCO4)n2)c1"
  measurement.name: "Ki"
  value.unit: "nM"
  value.reported: 10

Exercise: Input COc1cccc(Nc2n[nH]c(-c3cccnc3Oc3cc(OC)cc(OC)c3)n2)c1 , output reported Ki.
Solution: 50

Exercise: Give reported Ki value for COc1cc(Nc2ncccc2-c2nnc(Nc3ccc4c(c3)OCCO4)[nH]2)cc(OC)c1
Solution: 160

Exercise: Indicate its recorded Ki; the compound in question is COc1cc(Nc2ncccc2-c2n[nH]c(Nc3ccc4c(c3)OCO4)n2)cc(OC)c1
Solution: 60
